test system: H226 cells; test: MTT assay after 120 hours, IC50; assay type: cell-based; conditions: Homo sapiens, NCI-H226, 120 h, read-out: EGFR TKI IC50 (Nm)
pIC50: −log10 of the molar value.
experimental readout: pIC50

Input line: Notebook entry, H226 cells assay: pIC50 of C#Cc1cccc(Nc2ncnc3cc(OCCOC)c(OCCOC)cc23)c1 [erlotinib] = ?
Output line: < 5.70

###

system: H441 cells; assay: MTT assay after 120 hours, IC50; format: cell-based; settings: Homo sapiens, NCI-H441, 120 h, read-out: Dasatinib IC50 (Nm)
experimental readout: IC50

Input line: Fill blank: measured IC50 of the compound Cc1nc(Nc2ncc(C(=O)Nc3c(C)cccc3Cl)s2)cc(N2CCN(CCO)CC2)n1 [dasatinib, monohydrate] is ____.
Output line: > 2000 nM

###

tested on: A549 cells; test: MTT assay after 120 hours, IC50; format: cell-based; conditions: Homo sapiens, A549, 120 h, read-out: EGFR TKI IC50 (Nm)
pIC50: −log10 of the molar value.
experimental readout: pIC50

Input line: Which pIC50 is reported for this compound? C#Cc1cccc(Nc2ncnc3cc(OCCOC)c(OCCOC)cc23)c1 [erlotinib]
Output line: < 5.70

###

system: H157 cells; assay: MTT assay after 120 hours, IC50; type: cell-based, Human; settings: Homo sapiens, NCI-H157, 120 h, read-out: Dasatinib IC50 (Nm)
experimental readout: pIC50
Lab note — pIC50 values are minus log10 of concentrations in M.

Input line: Requested read-out pIC50, target or system H157 cells, entry Cc1nc(Nc2ncc(C(=O)Nc3c(C)cccc3Cl)s2)cc(N2CCN(CCO)CC2)n1 [dasatinib, monohydrate]
Output line: 7.31

###

Tested on: H441 cells
Experiment: MTT assay after 120 hours, IC50
Format: cell-based
Conditions: Homo sapiens, NCI-H441, 120 h, read-out: EGFR TKI IC50 (Nm)
Excerpt: Cell lines and cell culture. Human lung cancer cell lines were maintained in RPMI 1640 plus 5% bovine calf serum (BCS). H3255 cells were provided by Dr. Pasi Janne (Dana-Farber, Boston, Mass.) and grown in ACL-4 medium (12). HCC827 cells were provided by Dr. Jon Kurie (M. D. Anderson, Houston, Tex.). PC9 cells were provided by Dr. Matthew Lazzara (Massachusetts Institute of Technology, Boston, Mass.). […]. […] Cytotoxicity and apoptosis assays. […] Data are expressed as mean±SD.
pIC50: −log10 of the molar value.
experimental readout: pIC50

Input line: Requested read-out pIC50, target or system H441 cells, entry C#Cc1cccc(Nc2ncnc3cc(OCCOC)c(OCCOC)cc23)c1
Output line: < 5.70

###

system: H1648 cells; assay: MTT assay after 120 hours, IC50; format: cell-based, Human; conditions: Homo sapiens, NCI-H1648, 120 h, read-out: EGFR TKI IC50 (Nm)
experimental readout: IC50

Input line: Item C#Cc1cccc(Nc2ncnc3cc(OCCOC)c(OCCOC)cc23)c1 [erlotinib] has what recorded IC50?
Output line: 75.8 nM

###

tested on: H23 cells; assay: MTT assay after 120 hours, IC50; type: cell-based; details: Homo sapiens, NCI-H23, 120 h, read-out: EGFR TKI IC50 (Nm)
pIC50: −log10 of the molar value.
experimental readout: pIC50

Input line: Need pIC50, item C#Cc1cccc(Nc2ncnc3cc(OCCOC)c(OCCOC)cc23)c1
Output line: < 5.70

###

system: H157 cells; assay: MTT assay after 120 hours, IC50; format: cell-based, Human; conditions: Homo sapiens, NCI-H157, 120 h, read-out: EGFR TKI IC50 (Nm)
pIC50: −log10 of the molar value.
experimental readout: pIC50

Input line: Fill blank: measured pIC50 of the molecule C#Cc1cccc(Nc2ncnc3cc(OCCOC)c(OCCOC)cc23)c1 is ____.
Output line: < 5.70
